# System: RD
# method: Cytotoxicity
# Type: cell-based, human
# protocolConditions: read-out: 50% Cytotoxic concentration CC50, line of Human Echovirus-30
resultType: CC50 (µM)
Write the answer as a number in µM, unit excluded.

Reading of CC50 for Cc1cc(-c2noc(C(F)(F)F)n2)ccc1OCCCc1cc(C(=O)N(C)C)no1 with RD: 11

----------
resultType: CC50 (µM)
Write the answer as a number in µM, unit excluded.

Reading of CC50 for Cc1cc(-c2noc(C(F)(F)F)n2)ccc1OCCCc1cc(C(=O)N(C)C)no1 with Vero 76: 10.8

----------
# testedOn: UniProt:O75469
# Sequence (O75469 1-434): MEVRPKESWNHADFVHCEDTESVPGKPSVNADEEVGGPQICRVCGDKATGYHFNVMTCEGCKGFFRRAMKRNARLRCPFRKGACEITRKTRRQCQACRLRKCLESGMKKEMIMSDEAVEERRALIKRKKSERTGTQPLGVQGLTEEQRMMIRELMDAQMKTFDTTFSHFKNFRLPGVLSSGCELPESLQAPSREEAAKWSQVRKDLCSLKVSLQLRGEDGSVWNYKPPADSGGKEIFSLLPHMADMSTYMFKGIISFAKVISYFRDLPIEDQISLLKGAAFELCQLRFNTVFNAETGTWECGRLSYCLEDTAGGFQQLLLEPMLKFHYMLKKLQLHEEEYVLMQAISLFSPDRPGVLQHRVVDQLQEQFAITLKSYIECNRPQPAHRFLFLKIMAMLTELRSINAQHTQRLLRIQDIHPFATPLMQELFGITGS
# method: PXR agonist activity
# protocolConditions: read-out: PXR EC50
resultType: EC50

Reading of EC50 for Cc1cc(-c2noc(C(F)(F)F)n2)ccc1OCCCc1cc(C(=O)N(C)C)no1 with UniProt:O75469: > 100 µM

----------
# Tested on: Vero
# method: Cytotoxicity
# Assay type: cell-based
# protocolConditions: read-out: 50% Cytotoxic concentration CC50, line of Coxsackie B5
resultType: CC50 (µM)
Write the answer as a number in µM, unit excluded.

compound Cc1cc(-c2noc(C(F)(F)F)n2)ccc1OCCCc1cc(C(=O)N(C)C)no1 , CC50 observed: 59.1

----------
# testedOn: CYP2C19 (Homo sapiens, UniProt P33261)
# Sequence (P33261 whole entry): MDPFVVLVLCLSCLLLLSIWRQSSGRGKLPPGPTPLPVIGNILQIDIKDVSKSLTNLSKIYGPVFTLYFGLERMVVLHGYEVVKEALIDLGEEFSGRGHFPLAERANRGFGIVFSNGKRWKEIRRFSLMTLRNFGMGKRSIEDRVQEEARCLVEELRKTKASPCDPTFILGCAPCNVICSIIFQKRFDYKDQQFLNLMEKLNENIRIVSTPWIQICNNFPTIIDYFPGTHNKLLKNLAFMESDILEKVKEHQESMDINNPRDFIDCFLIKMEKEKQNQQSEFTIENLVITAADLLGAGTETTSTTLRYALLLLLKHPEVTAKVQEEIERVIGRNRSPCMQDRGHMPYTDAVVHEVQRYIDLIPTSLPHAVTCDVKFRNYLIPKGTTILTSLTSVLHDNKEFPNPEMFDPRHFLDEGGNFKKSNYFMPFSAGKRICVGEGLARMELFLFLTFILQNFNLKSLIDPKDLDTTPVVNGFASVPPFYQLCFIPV
# method: CYP inhibition, CYP2C19
# Type: in vitro ADME
# protocolConditions: read-out: CYP inhibition
resultType: IC50 (nM)
Write the answer as a number in nM, unit excluded.

compound Cc1cc(-c2noc(C(F)(F)F)n2)ccc1OCCCc1cc(C(=O)N(C)C)no1 , IC50 observed: 2100
